In this section, each of the binders is paired with its reported Microphysiometer pIC50 (block of TF-1 cell response to IL-5).
Target: T1, native IL-5R a/β complex on TF-1 cells (human, UniProt Q01344 21-420; P32927 17-897)
T1 sequence (looked up) 1: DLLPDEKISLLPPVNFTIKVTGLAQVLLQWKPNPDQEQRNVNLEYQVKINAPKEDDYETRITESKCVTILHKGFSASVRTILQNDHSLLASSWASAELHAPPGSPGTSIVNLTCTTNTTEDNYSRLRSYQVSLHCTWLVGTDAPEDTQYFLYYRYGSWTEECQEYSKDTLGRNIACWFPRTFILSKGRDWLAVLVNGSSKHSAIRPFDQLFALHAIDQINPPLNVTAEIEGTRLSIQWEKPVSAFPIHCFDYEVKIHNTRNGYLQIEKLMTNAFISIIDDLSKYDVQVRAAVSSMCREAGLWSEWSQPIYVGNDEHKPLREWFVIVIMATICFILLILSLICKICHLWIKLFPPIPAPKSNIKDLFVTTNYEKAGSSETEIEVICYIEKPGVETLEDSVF
T1 sequence (looked up) 2: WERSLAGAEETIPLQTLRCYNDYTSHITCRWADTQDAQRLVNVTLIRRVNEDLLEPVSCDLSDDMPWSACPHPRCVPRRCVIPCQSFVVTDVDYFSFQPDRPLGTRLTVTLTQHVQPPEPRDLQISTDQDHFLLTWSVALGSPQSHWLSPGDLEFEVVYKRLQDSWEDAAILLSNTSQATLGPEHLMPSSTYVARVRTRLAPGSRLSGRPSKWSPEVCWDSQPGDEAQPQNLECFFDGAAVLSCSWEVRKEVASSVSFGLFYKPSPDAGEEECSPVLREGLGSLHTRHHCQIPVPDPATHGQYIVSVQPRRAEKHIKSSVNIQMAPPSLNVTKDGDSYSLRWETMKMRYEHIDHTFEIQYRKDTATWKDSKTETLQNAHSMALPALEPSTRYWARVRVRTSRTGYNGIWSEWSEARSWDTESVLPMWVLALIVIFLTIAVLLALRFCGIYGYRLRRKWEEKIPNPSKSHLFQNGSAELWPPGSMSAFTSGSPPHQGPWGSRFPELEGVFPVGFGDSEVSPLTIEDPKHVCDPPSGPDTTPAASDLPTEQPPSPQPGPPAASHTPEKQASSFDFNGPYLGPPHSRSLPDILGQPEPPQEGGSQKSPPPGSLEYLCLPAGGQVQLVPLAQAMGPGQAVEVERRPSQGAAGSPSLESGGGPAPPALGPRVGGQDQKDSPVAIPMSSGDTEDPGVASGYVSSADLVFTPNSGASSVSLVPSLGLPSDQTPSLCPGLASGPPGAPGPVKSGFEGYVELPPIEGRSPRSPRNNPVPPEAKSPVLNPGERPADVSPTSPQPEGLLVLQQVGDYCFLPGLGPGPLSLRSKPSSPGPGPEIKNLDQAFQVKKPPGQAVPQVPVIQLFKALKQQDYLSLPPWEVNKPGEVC
Test: cell-based or functional assay
Readout: Microphysiometer pIC50 (block of TF-1 cell response to IL-5)

{"columns": ["Binder", "Measured result"],
 "data": [
  ["Ac-EGYVCVEWARCPTCR-NH2 (disulfide (positions not given here); also: dimer, intramolecular and intermolecular disulfides, places not given here) [dimer of (Ac)-EGYVCVEWARCPTCR-(NH2)]", "9.1 negative log of the molar IC50"],
  ["H-EGYVCVEWARCPTCR-NH2 (disulfide (positions not given here); also: dimer, intramolecular and intermolecular disulfide linkages, places not given here) [dimer of (H)-EGYVCVEWARCPTCR-(NH2)]", "9.1 negative log of the molar IC50"],
  ["H-GYVCVEWARCPTCR-OH (disulfide (positions not given here); also: dimer, intramolecular and intermolecular disulfide linkages, places not given here) [dimer of (H)-GYVCVEWARCPTCR-(OH)]", "8.4 negative log of the molar IC50"],
  ["Ac-EGYVCVEWAACPTCR-NH2 (disulfide (positions not given here); also: dimer, intramolecular and intermolecular disulfides, places not given here) [dimer of (Ac)-EGYVCVEWAACPTCR-(NH2)]", "6.9 negative log of the molar IC50"]
]}
